Reference source: ChEMBL document CHEMBL4483862

test system: Plasmodium berghei; experiment: Luciferase/luciferin-expressing antifolate-resistant parasites were used to infect a culture of HepG2 cells that were pre-incubated with compounds. Infected hepatocytes emit light due to the luciferase reaction. Assay results are presented as the percent inhibition of light emission compared to control. […]; format: functional; conditions: sporozoite, read-out: LUCIFERASE INFECTION ASSAY - IC90
attribute_measured: IC90

Below: 3 compounds and their reported IC90.
Exam item: Look up IC90 for this compound: "COC(=O)c1c(C)[nH]c(C(=O)Nc2nc(-c3cc(C)sc3C)cs2)c1C"
Marked response: > 10 µM

Exam item: Same for Cc1nc(-c2ccccc2)sc1C(=O)OC(C)C(=O)N1CCNC1=O (centres undefined)
Marked response: > 10 µM

Exam item: Same for "COc1cncc(-c2cnn3ccc(Nc4ccc(Oc5ccccc5)cc4)nc23)c1"
Marked response: > 8.06 µM

Then there is this compound:
Exam item: Look up IC90 for this compound: "Fc1cccc(-n2nnnc2-c2ccc(Cl)c(Cl)c2)c1"
Marked response: > 10.7 µM

###

Entries and their IC90
tested on: Plasmodium berghei; assay: Luciferase/luciferin-expressing antifolate-resistant parasites were used to infect a culture of HepG2 cells that were pre-incubated with compounds. Infected hepatocytes emit light due to the luciferase reaction. Assay results are presented as the percent inhibition of light emission compared to control. […]; assay type: functional; details: sporozoite, read-out: LUCIFERASE INFECTION ASSAY - IC90

Exam item: Look up IC90 for this compound: "C=CCn1c(SCc2c(C)noc2C)nc2scc(C3CC3)c2c1=O"
Marked response: 0.0519 µM

Exam item: Same for "O=C1c2cccc3c([N+](=O)[O-])ccc(c23)C(=O)N1Cc1cccnc1"
Marked response: > 9.9 µM

Exam item: Same for "Cn1/c(=N/C(=O)c2ccc(=O)[nH]c2)sc2ccccc21"
Marked response: > 10 µM

Exam item: Same for "CO/N=C1\CCCc2c(C(=O)N/N=C/c3ccccc3Cl)sc(SC)c21"
Marked response: 1.81 µM

Exam item: Same for "O=C(COC(=O)c1ccc(-n2ncc(Cl)c(Cl)c2=O)cc1)Nc1ccc(F)cc1"
Marked response: > 10 µM

Exam item: Same for "Cc1cc(C(=O)COC(=O)c2ccccc2S(=O)(=O)N(C)c2ccccc2)c(C)n1C1CC1"
Marked response: > 10 µM

Exam item: Same for "Nc1c(C(=O)Nc2cccc(Cl)c2)sc2nc3c(c(-c4cccnc4)c12)CCC3"
Marked response: > 7.84 µM

Exam item: Same for "O=C(NNc1ncc(C(F)(F)F)cc1Cl)c1c(Cl)cccc1Cl"
Marked response: > 8.58 µM

Exam item: Same for CC(NC(=O)Nc1ccc(C#N)c(Cl)c1)c1cccs1 (configuration not stated)
Marked response: > 10 µM

Exam item: Same for CCC1Oc2ccccc2C(=O)N(Cc2ccccc2F)C1=O (configuration not stated)
Marked response: > 10.5 µM

More entries:
Exam item: Look up IC90 for this compound: "FC(F)(F)c1cccc(-c2ccc3nnc(-c4cccc(Cl)c4)n3c2)c1"
Marked response: > 10 µM

Exam item: Same for "O=C(COC(=O)c1ccccc1NCCO)NC(=O)NCc1ccco1"
Marked response: > 10 µM

###

Entries and their IC90
system: Plasmodium berghei; experiment: Luciferase/luciferin-expressing antifolate-resistant parasites were used to infect a culture of HepG2 cells that were pre-incubated with compounds. Infected hepatocytes emit light due to the luciferase reaction. Assay results are presented as the percent inhibition of light emission compared to control. […]; assay type: functional; conditions: sporozoite, read-out: LUCIFERASE INFECTION ASSAY - IC90

Exam item: Look up IC90 for this compound: "Cc1onc(-c2ccc(Cl)cc2Cl)c1-c1csc(Nc2ccc(Cl)cc2)n1"
Marked response: > 7.56 µM

More entries:
Exam item: Look up IC90 for this compound: "O=S(=O)(Cc1ccccc1)N1CCN(c2ncnc3sc(-c4ccccc4)cc23)CC1"
Marked response: > 10 µM

Exam item: Same for "O=C(CSc1nncn1C1CC1)Nc1sc2c(c1C(=O)Nc1ccc(Cl)cc1)CCCC2"
Marked response: > 10 µM

Exam item: Same for "Cc1nnc(SCC(=O)Nc2ccc(Cl)cn2)n(N)c1=O"
Marked response: > 10 µM

###

test system: Plasmodium berghei; assay: Luciferase/luciferin-expressing antifolate-resistant parasites were used to infect a culture of HepG2 cells that were pre-incubated with compounds. Infected hepatocytes emit light due to the luciferase reaction. Assay results are presented as the percent inhibition of light emission compared to control. […]; assay type: functional; conditions: sporozoite, read-out: LUCIFERASE INFECTION ASSAY - IC90
attribute_measured: IC90

Below: 5 compounds and their reported IC90.
Exam item: Look up IC90 for this compound: "Cn1cccc1C(=O)NC(=O)COC(=O)CCNC(=O)c1ccc([N+](=O)[O-])cc1"
Marked response: > 10 µM

Exam item: Same for "Cn1cc(/C=C/C(=O)c2ccc(-c3ccc(F)cc3)s2)cn1"
Marked response: > 10 µM

Exam item: Same for "CCCC(/N=C/c1cc(Cl)ccc1O)/N=C/c1cc(Cl)ccc1O"
Marked response: > 9.03 µM

Exam item: Same for "CC(C)(C)c1ccc(-c2nnc(SCc3ccccc3Cl)n2-c2cccc(C(F)(F)F)c2)cc1"
Marked response: > 6.57 µM

Exam item: Same for "O=C(COc1ccc(F)cc1)N1CCC(Cc2ccccc2)CC1"
Marked response: > 10.1 µM

Then there is this compound:
Exam item: Look up IC90 for this compound: "CC(C)(C)c1ccc(OCC(=O)Nc2cnn(C(C)(C)C(=O)NCc3ccccc3)c2)cc1"
Marked response: > 10 µM

###

system: Plasmodium berghei; experiment: Luciferase/luciferin-expressing antifolate-resistant parasites were used to infect a culture of HepG2 cells that were pre-incubated with compounds. Infected hepatocytes emit light due to the luciferase reaction. Assay results are presented as the percent inhibition of light emission compared to control. […]; assay type: functional; details: sporozoite, read-out: LUCIFERASE INFECTION ASSAY - IC90
Entries and their IC90
Could you give me the number in µM? Just the number is fine.

Exam item: Look up IC90 for this compound: "N#Cc1ccc(-c2cnc3cnc(-c4cccc(N)c4)cn23)cc1"
Marked response: 4.97

Then there is this compound:
Exam item: Look up IC90 for this compound: "Cc1ccc(-c2cc(=O)n(-c3ccc(F)cc3)[nH]2)cc1"
Marked response: 11.6

###

test system: Plasmodium berghei; assay: Luciferase/luciferin-expressing antifolate-resistant parasites were used to infect a culture of HepG2 cells that were pre-incubated with compounds. Infected hepatocytes emit light due to the luciferase reaction. Assay results are presented as the percent inhibition of light emission compared to control. […]; assay type: functional; settings: sporozoite, read-out: LUCIFERASE INFECTION ASSAY - IC90
attribute_measured: IC90

Below: 5 compounds and their reported IC90.
Exam item: Look up IC90 for this compound: "COc1ccc(Nc2ccnc3cc(Cl)ccc23)cc1OC"
Marked response: > 10 µM

Exam item: Same for "O=C(c1ccc2[nH]c3c(c2c1)CCCC3)N1CCN(Cc2nc(-c3cccs3)no2)CC1"
Marked response: > 10 µM

Exam item: Same for "Cc1c(C(=O)N2CCN(c3cc(C#N)ccn3)CC2)[nH]c2c1C(=O)CCC2"
Marked response: > 10 µM

Exam item: Same for "NC(=O)c1c(NC(=O)N2CCC(Cc3ccccc3)CC2)sc2c1CCC2"
Marked response: > 8.6 µM

Exam item: Same for "Cc1cc2oc(=O)cc(Cn3cnc4sc(C)c(-c5ccccc5)c4c3=O)c2cc1Cl"
Marked response: > 10 µM

More entries:
Exam item: Look up IC90 for this compound: "CSc1nnc(-c2csc(S(=O)(=O)Oc3cc(Cl)cc(Cl)c3)c2)n1C"
Marked response: > 7.56 µM

Exam item: Same for "CCOC(=O)c1ccc(S(=O)(=O)N2CCC(N(C)C)CC2)cc1"
Marked response: > 10 µM

###

Entries and their IC90
test system: Plasmodium berghei; experiment: Luciferase/luciferin-expressing antifolate-resistant parasites were used to infect a culture of HepG2 cells that were pre-incubated with compounds. Infected hepatocytes emit light due to the luciferase reaction. Assay results are presented as the percent inhibition of light emission compared to control. […]; format: functional; conditions: sporozoite, read-out: LUCIFERASE INFECTION ASSAY - IC90

Below: 10 molecules and their reported IC90.
Exam item: Look up IC90 for this molecule: "CN(C)CCNC(=O)c1cccc(-c2cnc3ccc(-c4cccc(NS(C)(=O)=O)c4)nn23)c1"
Marked response: 1.3 µM

Exam item: Same for "N#Cc1c(CCCNC(=O)/C=C/c2ccc(Cl)c(C(F)(F)F)c2)nn(-c2ccc(F)cc2)c1N"
Marked response: > 10 µM

Exam item: Same for CCOC(=O)c1cc(OC)c2cccc(CN3CCCCCC3(C)C(=O)NCC(C)C)c2c1 (stereo not drawn)
Marked response: > 7.26 µM

Exam item: Same for NC(Cc1ccc(Cl)cc1)c1csc(NC(=O)Nc2ccccc2Cc2ccccc2)n1 (stereo not drawn)
Marked response: > 7.13 µM

Exam item: Same for "Cc1ccc(S(=O)(=O)N2CCC[C@H]2C(=O)Nc2ccc(-c3nc4ccccc4[nH]3)cc2)cc1"
Marked response: > 10 µM

Exam item: Same for "C=CCN(C(=O)c1cc(C2CC2)nc2ccccc12)c1nc2c(s1)CCCC2"
Marked response: > 10 µM

Exam item: Same for "O=c1c2ccccc2oc2nc(-c3ccccc3)n(Cc3ccccc3)c(=O)c12"
Marked response: 4.41 µM

Exam item: Same for "O=c1c(Cl)c(Cl)cnn1-c1cnc2ccccc2n1"
Marked response: > 11.3 µM

Exam item: Same for "COc1cccc(CN2CCN3C=C(C(=O)Nc4ccc(OCc5ccccc5)cc4)OC3=NC2=O)c1"
Marked response: > 10 µM

Exam item: Same for "Cc1ccc(C(=O)/C=C/c2cn(C)c(=O)n(C)c2=O)c(C)c1"
Marked response: > 10 µM

More entries:
Exam item: Look up IC90 for this molecule: "O=C(Nc1ccc2nc(Cc3ccccc3)nn2c1)c1cccc(Cl)c1"
Marked response: 1.48 µM
